# Measured On: furin, P09958
# Sequence (P09958 whole entry): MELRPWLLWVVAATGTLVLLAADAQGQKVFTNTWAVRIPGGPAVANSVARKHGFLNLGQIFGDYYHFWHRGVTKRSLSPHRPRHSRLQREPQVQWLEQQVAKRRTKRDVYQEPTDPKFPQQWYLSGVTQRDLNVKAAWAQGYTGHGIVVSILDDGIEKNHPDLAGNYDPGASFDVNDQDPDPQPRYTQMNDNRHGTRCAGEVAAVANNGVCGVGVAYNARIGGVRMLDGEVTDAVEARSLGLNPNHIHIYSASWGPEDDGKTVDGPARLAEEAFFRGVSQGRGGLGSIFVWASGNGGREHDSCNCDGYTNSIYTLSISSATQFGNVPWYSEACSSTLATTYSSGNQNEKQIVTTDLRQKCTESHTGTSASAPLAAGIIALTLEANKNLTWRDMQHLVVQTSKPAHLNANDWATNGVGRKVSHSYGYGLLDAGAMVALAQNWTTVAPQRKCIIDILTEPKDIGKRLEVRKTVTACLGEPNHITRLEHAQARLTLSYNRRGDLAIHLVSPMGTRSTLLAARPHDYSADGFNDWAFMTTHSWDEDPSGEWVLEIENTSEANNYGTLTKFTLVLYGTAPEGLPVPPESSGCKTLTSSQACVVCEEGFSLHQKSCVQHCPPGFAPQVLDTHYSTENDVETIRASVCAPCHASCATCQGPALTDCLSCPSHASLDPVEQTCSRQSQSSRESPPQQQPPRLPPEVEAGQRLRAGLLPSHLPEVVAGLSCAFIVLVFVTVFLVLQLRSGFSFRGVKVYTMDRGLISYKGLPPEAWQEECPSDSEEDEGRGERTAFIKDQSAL
# Measurement Protocol: furin cleavage Z-score vs untreated control; higher = more cleavage, active = 3.5 or more, inactive = 1 or less, 8 variable residues between constant flanks;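 also: purified furin at 1:10 enzyme:substrate in 50 mM HEPES pH 7.5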
# Experimental Context: 7.5 min
The list shows a part of the results. The true hit rate is not given.
Exercise: state measured furin cleavage Z-score for each of the sequences provided.
# answer = number (no unit)

Specify reported furin cleavage Z-score for the sequence shown: CAREGRDGPKAGNASASA [FS-2003]
0.305

Specify reported furin cleavage Z-score for the sequence shown: CALKGSSGGPAGNASASA [HC741]
-0.0654

Specify reported furin cleavage Z-score for the sequence shown: CAGACYSIEPAGNASASA [HC1595]
-0.464

Specify reported furin cleavage Z-score for the sequence shown: CAMEECSQLLAGNASASA [HC1745]
0.641
